# tested-system: hGLP-1R (Homo sapiens, UniProt P43220)
# Sequence (P43220 24-463): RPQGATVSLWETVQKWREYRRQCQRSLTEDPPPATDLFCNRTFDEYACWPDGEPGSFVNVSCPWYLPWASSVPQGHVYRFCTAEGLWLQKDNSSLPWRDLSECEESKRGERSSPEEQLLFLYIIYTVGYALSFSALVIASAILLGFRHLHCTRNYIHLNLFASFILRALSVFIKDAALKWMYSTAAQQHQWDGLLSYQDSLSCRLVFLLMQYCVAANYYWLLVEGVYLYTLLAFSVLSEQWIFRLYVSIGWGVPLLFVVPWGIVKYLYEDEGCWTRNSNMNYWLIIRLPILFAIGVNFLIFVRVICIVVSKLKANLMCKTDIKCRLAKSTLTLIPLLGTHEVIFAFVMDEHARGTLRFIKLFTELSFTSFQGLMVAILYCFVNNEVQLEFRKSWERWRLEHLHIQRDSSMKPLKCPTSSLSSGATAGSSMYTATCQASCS
# procedure-details: cell-based or functional assay
Starred links: 1 amine or outer side, 2 acyl side, 3 side chain; linkers in the order of their positions; H or OH if unused. Non-standard residues stand in square brackets, D forms with d. Groups on a side chain read outwards from the residue. No end group written: not given here. *: point of attachment. C18 diacid = O=C(O)CCCCCCCCCCCCCCCCC(=O)*; γGlu = O=C(O)[C@H](CCC(=O)[*:2])N[*:1]; αMeF = C[C@](N)(Cc1ccccc1)C(=O)O; AEEA = NCCOCCOCC(=O)O; Aib = CC(C)(N)C(=O)O
In this section we review reported Relative cAMP EC50 values for a set of binders.
Give the number; nM is assumed, so skip it.

Given YXQGTXTSDYSILLDKKAQXAFIEXLEEGGPSSGAPPPSEG (synthetic construct; SITE 2: note = 2-Aminoisobutyric Acid; SITE 6: note = alpha-methyl-2-fluoro-L-phenylalanine; SITE 17: note = Lysine is chemically modified through conjugation of the epsilon-amino group of the Lysine side chain with (2-[2-(2-Amino-ethoxy)-ethoxy]-acetyl)-(gamma-Glu)-CO-(CH2) 16-) [Example 411] , state its recorded Relative cAMP EC50.
0.709

New cases:
Given YXQGTXTSDXSIXLDKKAQXAFIEYLEEGGPSSGEPPPSGTGE (non-natural residues; lipidated Lys; C-terminal amide; synthetic construct; SITE 2: note = 2-Aminoisobutyric Acid; SITE 6: note = alpha-methyl-2-fluoro-L-phenylalanine; SITE 10: note = 3-(4-Pyridyl)-L-alanine; SITE 13: note = alpha-methyl-leucine; SITE 17: note = Lysine is chemically modified through conjugation of the epsilon-amino group of the Lysine) [Example 624] , state its recorded Relative cAMP EC50.
0.95

Also Y[Aib]QGT[αMeF]TSDYSILLDKIAAK([AEEA-AEEA-γGlu-C18 diacid])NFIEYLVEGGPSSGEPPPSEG-NH2 [Example 307] , if possible.
0.836
